Assign t½ to each entry below.
- systemTested: T1, mfNPR1-mFc:hBNP complex (monkey; human, UniProt P16860 103-134)
- T1 construct: also called monkey NPR1 complexed to BNP
- methodSummary: SPR, mAb captured, 25C
- Description: Equilibrium dissociation constant (KD) for different NPR1 reagents binding to purified anti-NPR1 monoclonal antibodies (mAbs) were determined using a real-time surface plasmon resonance based Biacore 4000 biosensor. All binding studies were performed in 10 mM HEPES, 150 mM NaCl, 3 mM EDTA, and 0.05% v/v Surfactant Tween-20, pH 7.4 (HBS-ET) running buffer at 25° C. and 37° C. […]

mAb22033 (antibody, human IgG4, V domains shown) VH: QVQLVQSGAEVKKPGASVTVSCKASGYTFTDYYMHWVRQAPGQGLEWMGWIKPNSGGTNSAQRFQGRITMTWDTSISTAYMELSRLRSDDTAVYYCSRGGPVMNYYYYYGMDVWGQGTTVTVSS VL: NIQMTQSPSSLSASVGDRVTITCRASQSIDSYLNWYQQKPGKAPKLLIYVASSLQSGVPSRFSGSGSGKDFTLTISSLQPEDFATYYCQQSYSIPTFGQGTRLEIK : 3.74 h

Query: Value lookup for t½; key = mAb25508 (antibody, human IgG4, V domains shown) VH: EVQLVESGGGVVRPGGSLRLSCAASGFNVDDYGMSWVRQIPGKGLEWISGINWNGGRIYYADSMKGRITISRDNAKNSLYLQMNSLRAEDTALYHCVRDQWLVRGLDYWGQGTLVTVSS VL: DIQMTQSPSSLSASVGDRVTITCRASQGIYNYLAWFQQKPGKAPKSLIYAASSLQSGVPSKFSGSGSGTDFTLTISSLQPEDFATYYCQQYNTYPYTFGQGTKLEIK
Result: 2.16 h
